The measurements presented in this section are drawn from a melting point compilation (Tetko et al.; mined from patent text by program, amines drawn as free bases though some values may be those of a salt).

quantity.kind: melting point

The cases that follow already have their melting point on record.
[
  {
    "compound": "CC1Cc2ccccc2C(=O)C1n1ccnc1 (configuration not stated)",
    "quantity.kind": "melting point",
    "measured": "153 to 155 °C"
  },
  {
    "compound": "CCCCCC(Oc1ccc(C2=CCCCC2)cc1)C(=O)O (configuration not stated)",
    "quantity.kind": "melting point",
    "measured": "78 to 80 °C"
  },
  {
    "compound": "COc1ccc(C2(C#Cc3ccccc3)CCCC(=O)C2)cc1OC1CCCC1 (configuration not stated)",
    "quantity.kind": "melting point",
    "measured": "90 to 91 °C"
  },
  {
    "compound": "OC1C2C=CC1C1N=NC21 (configuration not stated)",
    "quantity.kind": "melting point",
    "measured": "128 °C"
  },
  {
    "compound": "CCCCn1c(CO)nc2cnc3ccccc3c21",
    "quantity.kind": "melting point",
    "measured": "146 to 149 °C"
  }
]

Recorded melting point of CSCC(=O)c1cc(C(C)(C)C)c(O)c(C(C)(C)C)c1 , please. 108 to 110 °C

Recorded melting point of Cc1nc(-c2cccc(I)c2)no1 , please. 90 to 91.5 °C

* * *

# key: entry, value: melting point

Recorded melting point of CCOC(=O)C(Cc1ccccc1[N+](=O)[O-])(NC=O)C(=O)OCC , please. 129 to 132 °C

* * *

quantity.kind: melting point

[
  {
    "molecule": "CC(c1ccc(NC=O)c([N+](=O)[O-])c1)n1ccnc1 (configuration not stated)",
    "quantity.kind": "melting point",
    "measured": "158 °C"
  },
  {
    "molecule": "NC(=O)c1nnn(C2OC(CO)C(O)C2O)c1N (configuration not stated)",
    "quantity.kind": "melting point",
    "measured": "159 to 161 °C"
  },
  {
    "molecule": "Cc1c(-c2ccc(NC(=O)OCC(C)C)cc2)nc2n1CCc1ccccc1C2OC1CCN(C)CC1 (configuration not stated)",
    "quantity.kind": "melting point",
    "measured": "196 °C"
  },
  {
    "molecule": "CCCc1nc2c(N)nc3cc(-c4ccccc4NC(C)=O)ccc3c2s1",
    "quantity.kind": "melting point",
    "measured": "206 to 209 °C"
  },
  {
    "molecule": "CC(=S)NCC1CN(c2ccc(-c3csc(Cn4cnnn4)n3)c(F)c2)C(=O)O1 (configuration not stated)",
    "quantity.kind": "melting point",
    "measured": "96 to 98 °C"
  },
  {
    "molecule": "CC(=O)Nc1c(C(=O)c2cc(F)cc(F)c2)[nH]c2cc(Cl)ccc12",
    "quantity.kind": "melting point",
    "measured": "232 to 233 °C"
  },
  {
    "molecule": "CC1CC2(C)C(CCC3C4CCC(C5(C)OCCO5)C4(C)CC(=O)C32)CC1=O (configuration not stated)",
    "quantity.kind": "melting point",
    "measured": "168 to 169 °C"
  },
  {
    "molecule": "IC#CCOCc1cccnc1",
    "quantity.kind": "melting point",
    "measured": "109 to 110 °C"
  },
  {
    "molecule": "CN(C(=O)OC(C)(C)C)c1sc(-c2cccnc2)nc1Cl",
    "quantity.kind": "melting point",
    "measured": "119 to 122 °C"
  },
  {
    "molecule": "COC(=O)Cc1ccc(OC[C@@H](C)NC[C@H](O)c2ccccc2)cc1",
    "quantity.kind": "melting point",
    "measured": "69 to 70 °C"
  }
]

Recorded melting point of CN(CC(=O)O)c1cc(Br)ccc1[N+](=O)[O-] , please. 152 to 155 °C

Recorded melting point of CON=C(C(=O)O)c1cnsn1 , please. 99 to 100 °C

Recorded melting point of CCOCCn1c(N2CCCN(CCC3(c4ccccn4)CCN(C(=O)c4cc(OC)c(OC)c(OC)c4)C3)CC2)nc2ccccc21 (configuration not stated) , please. 50 to 55 °C
